- subject-of-test: PSMA-expressing LNCaP cells (Homo sapiens)
- Construct: PSMA-expressing LNCaP cells; endogenous in cells; host or cells: LNCaP
- Sequence (Q04609 whole entry): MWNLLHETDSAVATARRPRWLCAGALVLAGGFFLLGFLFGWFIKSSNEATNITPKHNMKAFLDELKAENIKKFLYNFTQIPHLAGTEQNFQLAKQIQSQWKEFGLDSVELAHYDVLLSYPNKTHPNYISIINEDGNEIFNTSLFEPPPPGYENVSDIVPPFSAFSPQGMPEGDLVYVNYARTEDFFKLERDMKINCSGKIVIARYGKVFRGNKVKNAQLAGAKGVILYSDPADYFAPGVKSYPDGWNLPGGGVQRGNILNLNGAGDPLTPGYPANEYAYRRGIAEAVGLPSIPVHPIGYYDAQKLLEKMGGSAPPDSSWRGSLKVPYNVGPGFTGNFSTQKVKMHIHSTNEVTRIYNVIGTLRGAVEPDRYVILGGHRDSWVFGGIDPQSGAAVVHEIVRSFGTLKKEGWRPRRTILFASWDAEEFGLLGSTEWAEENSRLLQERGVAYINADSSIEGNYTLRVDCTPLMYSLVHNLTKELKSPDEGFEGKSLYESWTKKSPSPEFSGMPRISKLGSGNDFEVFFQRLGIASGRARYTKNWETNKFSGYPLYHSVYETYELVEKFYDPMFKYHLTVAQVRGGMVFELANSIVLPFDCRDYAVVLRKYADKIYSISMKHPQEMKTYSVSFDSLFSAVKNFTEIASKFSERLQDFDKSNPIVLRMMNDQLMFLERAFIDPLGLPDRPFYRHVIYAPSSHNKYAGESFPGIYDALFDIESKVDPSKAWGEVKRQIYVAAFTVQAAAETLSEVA
- protocol-summary: Binding competition assay against 3H-PSMA-617 on LNCaP cells
- condition-notes: comparison between examples
assay-endpoint: competition against 3H-PSMA-617 on PSMA-expressing LNCaP cells (in words)

molecule	observed-value
Cc1cc(C(=O)NCCN(CCCN(CCNC(=O)c2cc(C)n(CC(=O)O)c(=O)c2O)CCNC(=O)c2cc(C)n(CC(=O)NC[C@H]3CC[C@H](C(=O)N[C@@H](Cc4ccc5ccccc5c4)C(=O)NCCCC[C@H](NC(=O)N[C@@H](CCC(=O)O)C(=O)O)C(=O)O)CC3)c(=O)c2O)CCNC(=O)c2cc(C)n(CC(=O)NC[C@H]3CC[C@H](C(=O)N[C@@H](Cc4ccc5ccccc5c4)C(=O)NCCCC[C@H](NC(=O)N[C@@H](CCC(=O)O)C(=O)O)C(=O)O)CC3)c(=O)c2O)c(O)c(=O)n1CC(=O)O	improved competition
NCc1ccc(C(=O)N[C@@H](Cc2ccc3ccccc3n2)C(=O)NCCCC[C@H](NC(=O)N[C@@H](CCC(=O)O)C(=O)O)C(=O)O)nc1	improved competition
Cc1cc(C(=O)NCCN(CCCN(CCNC(=O)c2cc(C)n(CC(=O)O)c(=O)c2O)CCNC(=O)c2cc(C)n(CC(=O)NC[C@H]3CC[C@H](C(=O)N[C@@H](Cc4ccc5ccccc5c4)C(=O)NCCCC[C@H](NC(=O)N[C@@H](CCC(=O)O)C(=O)O)C(=O)O)CC3)c(=O)c2O)CCNC(=O)c2cc(C)n(CC(=O)O)c(=O)c2O)c(O)c(=O)n1CC(=O)O	improved competition
